Each recorded value in this set is attributed to ChEMBL document CHEMBL1125102.

assayedSystem: Tubulin
assayComment: Inhibition of tubulin polymerization
Here, each record is paired with measured IC50 data.

As a guide, the following entries are already answered.
molecule	readoutLabel	result
CN1CCN(C(Cc2nc(O)c3cc(Cl)ccc3n2)c2ccccc2)CC1 (stereo unspecified)	IC50	5.3 µM
Oc1nc(/C=C/c2ccccc2)nc2c(Cl)cccc12	IC50	> 40 µM
CN1CCN(c2cc3nc(/C=C/c4ccccc4)nc(O)c3cc2F)CC1	IC50	> 40 µM

Data request: Report IC50 for CCN(CC)CCCC(C)Nc1nc(/C=C/c2ccccc2)nc2ccc(Cl)cc12 (stereo unspecified)
Data returned: > 40 µM

Data request: Please give the documented IC50 of COc1ccc2nc(CC(c3ccccc3)N3CCCCC3)nc(O)c2c1 (stereo unspecified)
Data returned: 14 µM

Data request: Tell me IC50 reported for Cc1nc(O)c2cc(Cl)ccc2n1
Data returned: > 40 µM
